These measurements were taken from the supplement of paper PMC11208160.

# measurement protocol: recombinant UMI read abundance after kanamycin selection (control-corrected) (log10(CPM+1)); higher = more efficient recombination; extreme values may be limits of the assay; sequences stand for … in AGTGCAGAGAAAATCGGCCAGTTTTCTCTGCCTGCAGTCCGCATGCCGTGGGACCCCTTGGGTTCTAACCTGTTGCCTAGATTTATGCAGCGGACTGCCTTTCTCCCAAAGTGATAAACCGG…AGGTTGGTTTCACT; site = the 11-nt donor;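 note: IS621 bridge recombinase in Escherichia coli cells against a fixed T5 target plasmid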
Overview of reported recombinant UMI read abundance (log10) across a group of sequences:

{"polymer sequence": "CCGCGGGCATGGACCGGTTTTCCCGGTAATCCGTATTTGCC (site CCGCGGGCTGG)", "measured metric": "recombinant UMI read abundance (log10)", "assay result": 1.43}
{"polymer sequence": "CCTAAGGCATGGACCGGTTTTCCCGGTAATCCGTATTTGAT (site CCTAAGGCTAT)", "measured metric": "recombinant UMI read abundance (log10)", "assay result": 0.0186}
{"polymer sequence": "TCAGAGACATGGACCGGTTTTCCCGGTAATCCGTATTTGCG (site TCAGAGACTCC)", "measured metric": "recombinant UMI read abundance (log10)", "assay result": 0.0212}
{"polymer sequence": "ACCGACGCATGGACCGGTTTTCCCGGTAATCCGTATTTGTT (site ACCGACGCTAA)", "measured metric": "recombinant UMI read abundance (log10)", "assay result": 0.786}
{"polymer sequence": "CGTTAGCCATGGACCGGTTTTCCCGGTAATCCGTATTTGAG (site CGTTAGACTCT)", "measured metric": "recombinant UMI read abundance (log10)", "assay result": 0.00766}

I have this sequence here, AGCTCAGCATGGACCGGTTTTCCCGGTAATCCGTATTTGGG (site AACTCAGCTCC) , and I need its recorded recombinant UMI read abundance (log10).
0

I have this sequence here, CGGAATTCATGGACCGGTTTTCCCGGTAATCCGTATTTGTT (site CGGAATACTAA) , and I need its recorded recombinant UMI read abundance (log10).
0.00592

I have this sequence here, TAAAGGCCATGGACCGGTTTTCCCGGTAATCCGTATTTGTA (site TAAAGGCCTTA) , and I need its recorded recombinant UMI read abundance (log10).
0.544

I have this sequence here, CTAGTATCATGGACCGGTTTTCCCGGTAATCCGTATTTGAC (site TTAGTATCTGA) , and I need its recorded recombinant UMI read abundance (log10).
0

I have this sequence here, CGTTAGCCATGGACCGGTTTTCCCGGTAATCCGTATTTGAG (site CGTTAGCCTCT) , and I need its recorded recombinant UMI read abundance (log10).
0.184

I have this sequence here, AGCTTCCCATGGACCGGTTTTCCCGGTAATCCGTATTTGTG (site AGATTCCCTCA) , and I need its recorded recombinant UMI read abundance (log10).
0.114

I have this sequence here, GCCTTCACATGGACCGGTTTTCCCGGTAATCCGTATTTGTT (site GCCTTCACTAA) , and I need its recorded recombinant UMI read abundance (log10).
0.931

I have this sequence here, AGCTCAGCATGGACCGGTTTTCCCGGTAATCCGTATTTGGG (site AGCTCTGCTCC) , and I need its recorded recombinant UMI read abundance (log10).
0.0255

I have this sequence here, GGACGCGCATGGACCGGTTTTCCCGGTAATCCGTATTTGGA (site GGACGCGCTTC) , and I need its recorded recombinant UMI read abundance (log10).
0.00923
